Source listed as the C3SDB collision cross section collection.

conditions: [M+Na]+; instrument: TW; calibrated with polyalanine and drug standards
measurement-kind: collision cross section (N2) (Å²)
Give just the number in Å²; leave the unit off.

Illustrative cases are given below, each with its answer.
>>> print(df.to_string())
                                   compound  unit_abbreviation  numeric_value
0  CC1(C)C(C=C(Cl)Cl)C1C(=O)OC(C#N)c1cccc(Oc2ccccc2)c1 (stereo not drawn)                 Å²          200.6
1  C[C@H](CCC(=O)O)[C@H]1CC[C@H]2[C@@H]3CC[C@@H]4C[C@H](O)CC[C@]4(C)[C@H]3C[C@H](O)[C@]12C                 Å²          196.7

# input for lookup
Exam item: Return reported collision cross section (N2); argument: COC(=O)CC[C@@H](C)[C@H]1CC[C@H]2[C@@H]3[C@H](O)C[C@@H]4C[C@H](O)CC[C@]4(C)[C@H]3C[C@H](O)[C@]12C
Marked response: 198.1

====

conditions: [M+NH4]+; instrument: DT; single field, calibrated with Agilent tune mix (Agilent)
# binarize collision cross section (N2): threshold 300 Å² inclusive, high side Yes, low side No

structure	assigned-label
CCCCC/C=C\C/C=C\C/C=C\C/C=C\CCCCCC(=O)OC[C@@H](COC(=O)CCCCCCCCCCCCC)OC(=O)CCCCCCCCCCCCC	Yes
CCCCC/C=C\C/C=C\C/C=C\C/C=C\CCCC(=O)OC[C@@H](COC(=O)CCCCCCCCCCCCC)OC(=O)CCCCCCCCCCCCCCCCC	Yes
CC/C=C\C/C=C\C/C=C\C/C=C\CCCCC(=O)OC[C@@H](COC(=O)CCCCCCCCCCCCCCCCC)OC(=O)CCCC/C=C\C/C=C\C/C=C\CCCCC	Yes
CCCCCCCCC/C=C\CCCCCCCC(=O)OC[C@@H](COC(=O)CCCCCCCCCCCCCC)OC(=O)CCCCCCCCCCCCCC	Yes
CCCC/C=C\CCCCCCCC(=O)OC[C@H](COP(=O)(O)OC[C@@H](O)CO)OC(=O)CCCCCCCCCCC/C=C\C/C=C\CCCCC	No
CCCCC/C=C\C/C=C\C/C=C\CCCCCCC(=O)O[C@H](COC(=O)CCCC/C=C\C/C=C\C/C=C\CCCCC)COC(=O)CCCCCCCCC/C=C\CCCCCCCCCC	Yes
CC/C=C\C/C=C\C/C=C\C/C=C\C/C=C\CCCCCC(=O)OC[C@@H](COC(=O)CCCCCCC/C=C\CCCCC)OC(=O)CCCCCCCCCCCCCCCCCC	Yes
CCCCCCCC/C=C\CCCCCCCCCC(=O)O[C@@H](CO)COC(=O)CCCCCCC/C=C\CCCCCCCC	No
CCCCC/C=C\C/C=C\CCCCCCCC(=O)O[C@H](COC(=O)CCCCCCCCCCCCCCCCC)COP(=O)(O)O	No
CCCCC/C=C\C/C=C\CCCCCCCCCC(=O)O[C@@H](CO)COC(=O)CCCCCCCCCCCCCCCCCCC	No

Exam item: Has CCCCC/C=C\C/C=C\C/C=C\C/C=C\CCCC(=O)OC[C@@H](COC(=O)CCCCCCCCCCCCCC)OC(=O)CCCCCCCCCCCCCCCCC a recorded collision cross section (N2) greater than or equal to 300 Å²?
Marked response: Yes

Exam item: Has CC/C=C\C/C=C\C/C=C\C/C=C\C/C=C\CCCC(=O)O[C@H](COC(=O)CCCCCCC/C=C\C/C=C\C/C=C\CC)COC(=O)CCCCCCCCC/C=C\CCCCCCCCCC a recorded collision cross section (N2) greater than or equal to 300 Å²?
Marked response: Yes

====

settings: [M+H]+; instrument: TW; calibrated with polyalanine and drug standards
# binarize collision cross section (N2): threshold 200 Å² inclusive, high side label 1, low side label 0

Worked set:
>>> df
                                   compound  assigned_label
0  COc1ccc(-c2c(O)c3c(OC)c4c(cc3oc2=O)OC(C)(C)C=C4)cc1         label 0
1  CCN(CC)C(=O)c1cccc(C)c1 [DIETHYLTOLUAMIDE]         label 0
2  CC(=O)OCC(=O)[C@@]12OC3(CCCC3)O[C@@H]1C[C@H]1[C@@H]3CCC4=CC(=O)C=C[C@]4(C)[C@@]3(F)[C@@H](O)C[C@@]12C [AMCINONIDE]         label 1
3             Nc1ccc(S(=O)(=O)Nc2ccccn2)cc1         label 0
4  O=c1ccc2cc(O[C@@H]3O[C@H](CO)[C@@H](O)[C@H](O)[C@H]3O)c(O)cc2o1         label 0

Next up:
Exam item: Has CC(C)(Oc1ccc(CCNC(=O)c2ccc(Cl)cc2)cc1)C(=O)O [BEZAFIBRATE] a recorded collision cross section (N2) greater than or equal to 200 Å²?
Marked response: label 0

====

Measured collision cross section (N2), listed per entry.
settings: [M+H]+; instrument: DT; single field, calibrated with ESI Low Concentration Tuning Mix (Agilent)
Give just the number in Å²; leave the unit off.

>>> df
                                   compound              measurement_kind  unit_abbreviation  numeric_value
0    Nc1ccc(C(=O)[O-])cc1 [4-AMINOBENZOATE]  collision cross section (N2)                 Å²          126.9
1  CS(=N)(=O)CCC(N)C(=O)O (centres undefined)  collision cross section (N2)                 Å²          136.9
2  CC(=O)NC(CCCCN)C(=O)O (centres undefined)  collision cross section (N2)                 Å²          145.5

# input for lookup
Exam item: Return reported collision cross section (N2); argument: NCCP(=O)(O)O [(2-AMINOETHYL)PHOSPHONATE]
Marked response: 129

====

details: [M+NH4]+; instrument: DT; single field, calibrated with Agilent tune mix (Agilent)
measurement-kind: collision cross section (N2) (Å²)
Give just the number in Å²; leave the unit off.

molecule	collision cross section (N2) / Å²
CCCCC/C=C\C/C=C\C/C=C\CCCCCCCCC(=O)OC[C@@H](COC(=O)CCCCCCCCCCCC)OC(=O)CCCCCCCCCCCC	304.8

Exam item: Return reported collision cross section (N2); argument: CC/C=C\C/C=C\C/C=C\C/C=C\CCCCC(=O)OC[C@H](COP(=O)(O)O[C@H]1C(O)C(O)C(O)[C@@H](O)C1O)OC(=O)CCCCCCCCCCCCCCCCCC (stereo not given in full)
Marked response: 300.2

Exam item: Return reported collision cross section (N2); argument: CCCCC/C=C\C/C=C\CCCCCCCCCCCC(=O)O[C@H](COC(=O)CCCCCCC/C=C\CCCCC)COP(=O)(O)O[C@H]1C(O)C(O)C(O)[C@@H](O)C1O (stereo not given in full)
Marked response: 301.4

Exam item: Return reported collision cross section (N2); argument: CC/C=C\C/C=C\C/C=C\C/C=C\CCCCC(=O)O[C@H](COC(=O)CCCCCCCCCCC/C=C\C/C=C\CCCCC)COP(=O)(O)OC[C@@H](O)CO
Marked response: 296.6

Exam item: Return reported collision cross section (N2); argument: CCCCCCCC/C=C\CCCCCCCCCC(=O)O[C@H](COC(=O)CCCCCCCCCCCCCC)COP(=O)(O)O[C@H]1C(O)C(O)C(O)[C@@H](O)C1O (stereo not given in full)
Marked response: 298.1

====

conditions: [M+H]+; instrument: TW; calibrated with polyalanine and drug standards
measurement-kind: collision cross section (N2) (Å²)
Give just the number in Å²; leave the unit off.

Illustrative cases are given below, each with its answer.
                                   compound              measurement_kind  numeric_value
0  Cc1cc(O)c(C=O)c2c1C(=O)Oc1c(COC(=O)/C=C/C(=O)O)c(O)c(C(=O)O)c(C)c1O2  collision cross section (N2)          204.5
1  CC1(C)C(=O)C=C[C@@]2(C)C1CC(=O)[C@]1(C)C2CC[C@@]2(C)[C@H](c3ccoc3)OC(=O)[C@H]3O[C@]321 (stereo partly drawn)  collision cross section (N2)          196.6
2  CO[C@]12C[C@@H](COC(=O)c3cncc(Br)c3)CN(C)[C@@H]1Cc1cn(C)c3cccc2c13  collision cross section (N2)          213.8
3  CC(C)C1CCC(C(=O)N[C@H](Cc2ccccc2)C(=O)O)CC1 (stereo partly drawn) [NATEGLINIDE]  collision cross section (N2)          178.6
4  CCCC(=O)Nc1ncnc2c1ncn2[C@@H]1O[C@@H]2COP(=O)(O)O[C@H]2[C@H]1OC(=O)CCC  collision cross section (N2)          215.3
5             Nc1nnc(-c2cccc(Cl)c2Cl)c(N)n1  collision cross section (N2)          150.6
6                COc1ccc(C(=O)N2CCCC2=O)cc1  collision cross section (N2)          146.6
7               Oc1ccc(Cl)cc1Cc1cc(Cl)ccc1O  collision cross section (N2)          147.4
8  O=C(CCNNC(=O)c1ccncc1)NCc1ccccc1 [NIALAMIDE]  collision cross section (N2)          174.3
9  C[C@H]1C[C@@H]2[C@H]([C@@H](O)C[C@@]3(C)[C@H]2CC[C@]3(O)C(=O)CO)[C@@]2(C)C=CC(=O)C=C12  collision cross section (N2)          187.7

Exam item: Return reported collision cross section (N2); argument: CCCN(CCC)S(=O)(=O)c1ccc(C(=O)O)cc1
Marked response: 161.4

Exam item: Return reported collision cross section (N2); argument: CCc1cccc2c3c([nH]c12)C(CC)(CC(=O)O)OCC3 (stereo not drawn)
Marked response: 164.4

Exam item: Return reported collision cross section (N2); argument: CC[C@H]1[C@@H]2C[C@H]3[C@@H]4N(C)c5ccccc5[C@]45C[C@@H]([C@H]2[C@H]5O)N3[C@@H]1O
Marked response: 172.9
